Attribution: patent US8183236B2

SYSTEM UNDER TEST: UniProtKB P12497
ASSAY SUMMARY: HIV-1 integrase 3′-processing assay (32P-labeled 21-mer, gel)
Format: biochemical
EXPERIMENTAL PARAMETERS: unit inferred; read-out: IN inhibition activity 3′-processing
MEASURED QUANTITY: pIC50
Answers are plain numbers, as −log10 of the molar value.

Some solved cases for reference:
The reported pIC50 of the compound O=C(N/N=C/c1ccc(-c2ccc(O)c(C(=O)O)c2)o1)c1cccnc1 was 4.23

The reported pIC50 of the compound O=C(CSc1nc2ccccc2n1Cc1ccccc1)N/N=C/c1cc(Br)ccc1O was 4.22

Batch: pIC50 for all items listed.
1. O=C(O)CCCCCN1C(=O)C(O)=C(C(=O)c2ccc(Cl)cc2)C1c1ccc2c(c1)OCO2 (stereo not shown)
2. O=C(N/N=C/c1ccc(-c2ccc(Cl)c(C(=O)O)c2)o1)c1ccncc1

[out]
1: 4.60; 2: 4.05
